These measurements were taken from ChEMBL document CHEMBL1137972.

Test system: HEL
Assay overview: Effective concentration against human cytomegalovirus AD-169 strain in HEL cell cultures
Format: functional, cell-based
Result type: log10(EC50) (log10 of the value in nM)
Please note: log10 values; quantity EC50; unit nM.

Q: Any idea what its log10(EC50) is? The compound is CC(C)(C)OC(=O)C1(Cc2ccccc2)CCN1C(=O)OCc1ccccc1 (stereo unspecified)
A: 2.87

Q: Any idea what its log10(EC50) is? The compound is Nc1nc2c(ncn2COC(CO)CO)c(=O)[nH]1
A: 2.95

Q: Any idea what its log10(EC50) is? The compound is C[C@H](NC(=O)N1C(=O)C[C@]1(Cc1ccccc1)C(=O)OC(C)(C)C)c1ccccc1
A: 4.51

Q: Any idea what its log10(EC50) is? The compound is O=C1C[C@H](Cc2ccccc2)N1C(=O)NCc1ccccc1
A: 4.72

Q: Any idea what its log10(EC50) is? The compound is Nc1ccn(C[C@@H](CO)OCP(=O)(O)O)c(=O)n1
A: 2.20
